# targetOrTestSystem: GST-tagged truncated human mutant G2019S LRRK2 (Homo sapiens (Human), UniProt Q5S007, G2019S)
# Sequence (Q5S007 970-2527 G2019S): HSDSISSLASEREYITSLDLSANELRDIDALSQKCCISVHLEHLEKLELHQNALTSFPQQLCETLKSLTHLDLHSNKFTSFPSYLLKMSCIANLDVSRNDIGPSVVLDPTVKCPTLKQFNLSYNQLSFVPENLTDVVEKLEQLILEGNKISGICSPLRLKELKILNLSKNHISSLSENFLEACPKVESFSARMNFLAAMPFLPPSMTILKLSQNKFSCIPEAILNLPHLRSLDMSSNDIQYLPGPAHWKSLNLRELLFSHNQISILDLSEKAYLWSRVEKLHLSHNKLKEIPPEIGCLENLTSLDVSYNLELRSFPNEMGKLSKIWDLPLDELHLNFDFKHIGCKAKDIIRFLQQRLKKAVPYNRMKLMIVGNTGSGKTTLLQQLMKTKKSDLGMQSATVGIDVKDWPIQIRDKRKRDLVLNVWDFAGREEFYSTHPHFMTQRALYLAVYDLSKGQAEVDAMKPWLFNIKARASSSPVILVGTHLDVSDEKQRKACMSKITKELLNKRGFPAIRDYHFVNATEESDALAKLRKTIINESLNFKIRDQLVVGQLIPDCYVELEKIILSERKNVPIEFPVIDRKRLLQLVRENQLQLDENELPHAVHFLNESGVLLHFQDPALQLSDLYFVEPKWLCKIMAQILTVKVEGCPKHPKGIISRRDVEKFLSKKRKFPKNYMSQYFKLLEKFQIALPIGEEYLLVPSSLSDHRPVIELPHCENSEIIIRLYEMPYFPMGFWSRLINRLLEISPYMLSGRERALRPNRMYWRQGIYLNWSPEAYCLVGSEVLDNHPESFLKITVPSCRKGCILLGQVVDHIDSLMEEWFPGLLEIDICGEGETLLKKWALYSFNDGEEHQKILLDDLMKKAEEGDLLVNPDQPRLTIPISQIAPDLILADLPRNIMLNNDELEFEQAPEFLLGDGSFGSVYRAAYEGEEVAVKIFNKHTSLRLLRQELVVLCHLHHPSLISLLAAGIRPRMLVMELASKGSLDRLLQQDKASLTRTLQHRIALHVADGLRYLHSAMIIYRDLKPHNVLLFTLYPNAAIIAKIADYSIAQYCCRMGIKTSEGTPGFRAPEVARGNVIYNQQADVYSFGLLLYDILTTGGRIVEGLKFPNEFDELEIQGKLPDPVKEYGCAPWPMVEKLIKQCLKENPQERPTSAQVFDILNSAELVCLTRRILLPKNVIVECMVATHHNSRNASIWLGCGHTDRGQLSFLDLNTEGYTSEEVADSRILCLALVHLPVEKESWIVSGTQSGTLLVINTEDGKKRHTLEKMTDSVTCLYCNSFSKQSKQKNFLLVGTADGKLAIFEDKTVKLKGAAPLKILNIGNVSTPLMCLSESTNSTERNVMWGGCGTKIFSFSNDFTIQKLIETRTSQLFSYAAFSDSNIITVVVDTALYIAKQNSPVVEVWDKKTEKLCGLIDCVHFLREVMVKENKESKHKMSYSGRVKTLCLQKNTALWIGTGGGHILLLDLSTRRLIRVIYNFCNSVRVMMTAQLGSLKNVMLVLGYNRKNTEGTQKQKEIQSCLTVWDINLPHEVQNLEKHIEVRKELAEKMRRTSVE
# measurementDescription: LRRK2 G2019S Km ATP LanthaScreen assay
# Type: biochemical
# conditionSet: G2019S LRRK2, 134 μM ATP (Km ATP), LRRKtide substrate
Record form. Attribute: LRRK2 pIC50. Fill in for each entry.

Enquiry: Any idea what its LRRK2 pIC50 is? The compound is Cc1nn(C2CCC2)c2c1OC[C@@H]1COC[C@H]1Nc1nc(ncc1C(F)(F)F)N2 [Ex-2.28]
Return: 9.64

Enquiry: For Cc1nn(C2CCC2)c2c1OC1COC[C@@H]1CNc1nc(ncc1Cl)N2 (stereo partly shown) [Ex-2.83] then?
Return: 5.76

Enquiry: Cool, now "Cc1ccc2c(n1)OC[C@@H]1COC[C@H]1Nc1nc(ncc1C(F)(F)F)N2"
Return: 10.01

Enquiry: Another compound: "OCc1nn(C2CCC2)c2c1OC[C@@H]1COC[C@H]1Nc1nc(ncc1C(F)(F)F)N2"
Return: >10.09

Enquiry: Same for "CC(C)(O)Cn1nc(C2CC2)c2c1OC[C@@H]1CC[C@H]1Nc1nc(ncc1C(F)(F)F)N2"
Return: >10.09

Enquiry: Please do the same for Cc1nn(C2CCC2)c2c1OC[C@@H]1CN(C[C@H]1C)c1nc(ncc1C(F)(F)F)N2 (single isomer, unassigned) as well.
Return: 9.39

Enquiry: Also, Cc1c2c(nn1C1CC1)Nc1ncc(C(F)(F)F)c(n1)N[C@H](C)CCO2 (single isomer, unassigned) please.
Return: 8.24

Enquiry: Also "FC(F)(F)c1cnc2nc1N[C@@H]1COC[C@H]1COc1cc(Cl)ncc1N2" , if possible.
Return: 9.04

Enquiry: Here is the next compound: "CCOC(=O)Cc1nn(C2CC2)c2c1OC[C@@H]1COC[C@H]1Nc1nc(ncc1C(F)(F)F)N2"
Return: 9.45

Enquiry: How about this compound: CC(C)n1nc(C2C[C@@H]2C#N)c2c1Nc1ncc(C(F)(F)F)c(n1)N[C@@H]1COC[C@H]1CO2 (single isomer, unassigned) [Ex-2.44]
Return: 8.80

Enquiry: Same question, Cc1nn(C2CCC2)c2c1OC[C@H]1CN(C3COCC3F)C[C@@H]1Nc1nc(ncc1C(F)(F)F)N2 (mixture of isomers) this time
Return: >10.09

Enquiry: Request: "Cc1nn(C)c2c1OC[C@H]1CCC(C1)Nc1nc(ncc1C(F)(F)F)N2"
Return: 7.64

Enquiry: // next record "Cc1nn(C)c2c1OCC1(CC1)CNc1nc(ncc1C(F)(F)F)N2"
Return: >10.09

Enquiry: Next up: CC(C)(C#N)c1nn(C2CCC2)c2c1OC[C@H]1CC[C@@H]1Nc1nc(ncc1C(F)(F)F)N2 [Ex-2.53]
Return: 9.64

Enquiry: Repeat for the following compound: COC1CCC1n1nc(C)c2c1Nc1ncc(C(F)(F)F)c(n1)NC1COCC1CO2 (stereo not shown) [Ex-2.40]
Return: 8.96

Enquiry: Same read-out for CC(C)(C#N)c1nn(C2CCC2)c2c1OC[C@H]1CC[C@@H]1Nc1nc(ncc1C(F)(F)F)N2 [Ex-2.52] ?
Return: 5.96

====

Kindly supply the reported LRRK2 pIC50 values for the records listed here.
# targetOrTestSystem: GST-tagged truncated human mutant G2019S LRRK2 (Homo sapiens (Human), UniProt Q5S007, G2019S)
# measurementDescription: LRRK2 G2019S Km ATP LanthaScreen assay
# Type: biochemical
# conditionSet: G2019S LRRK2, 134 μM ATP (Km ATP), LRRKtide substrate
Response field accepts a number only; no unit should be typed.

Enquiry: What measured LRRK2 pIC50 goes with Cc1nn2c(c1C)Nc1ncc(C(F)(F)F)c(n1)N[C@@H](C)CCC2 (single isomer, unassigned) ?
Return: 7.70

Enquiry: Entry N#CC1CC1c1nn(C2CCC2)c2c1OC[C@@H]1COC[C@H]1Nc1nc(ncc1C(F)(F)F)N2 (single isomer, unassigned) [Ex-2.50] please
Return: 9.77

Enquiry: Now try "Cc1nn(C(C)C)c2c1OC[C@@H]1COC[C@H]1Nc1nc(ncc1C(F)(F)F)N2" .
Return: 9.93

Enquiry: Would you kindly repeat that for "Cc1nn(C2CCC2)c2c1OC[C@@H]1CC(F)(F)C[C@H]1Nc1nc(ncc1C(F)(F)F)N2" ?
Return: 9.51

Enquiry: // next record Cc1nn(C)c2c1OCC1(CNc3nc(ncc3C(F)(F)F)N2)CC12CCOCC2 (single isomer, unassigned) [Ex-2.17]
Return: 8.42

Enquiry: Further, for Cc1nn(C)c2c1OCC[C@H](C)Nc1nc(ncc1C(F)(F)F)N2 (mixture of isomers) ?
Return: 6.64
